test: Single oral dose pharmacokinetics (plasma and urine) of SYM-1219 microgranule formulation in fasted healthy female subjects; conditions: female, human, plasma, po, 1 g, Cmax, Geometric Mean; 1 gram single oral dose; fasted; N = 14
MEASUREMENT_TYPE: Cmax (ng/mL)

>>> quantitative_readout("Cc1ncc([N+](=O)[O-])n1CC(C)O (stereo not shown) [SYM-1219]")
22400

* * *

assay: Effect of a single 2 g dose of SYM-1219 on the plasma pharmacokinetics of EE2 and NET in healthy female subjects; format: in vivo, human; conditions: female, human, plasma, Group B2 Period 1: EE2/NET alone; read-out: NET AUC0-∞, Geometric LSMeans
MEASUREMENT_TYPE: AUC(0-inf)

>>> result("C#C[C@]1(O)CC[C@H]2[C@@H]3CCC4=CC(=O)CC[C@@H]4[C@H]3CC[C@@]21C [NET, norethindrone]")
"55.1 ng·h/mL"
